# if measured glass transition temperature < 200 °C: condition met  # else: condition not met

For orientation, consider the following solved cases.
[
  {
    "compound": "*c1ccc(-c2ccc(NC(=O)c3cccc(C(=O)Nc4ccc(-c5ccc(-n6c(=O)c7cc8c(=O)n(*)c(=O)c8cc7c6=O)cc5)cc4)c3)cc2)cc1 (repeat unit)",
    "label-class": "condition not met"
  },
  {
    "compound": "*CCOCCOC(=O)C(CCCCCCCCC)C(=O)O* (repeat unit)",
    "label-class": "condition met"
  }
]

Does the reported glass transition temperature of the following compound sit strictly below 200 °C? *Oc1ccc(C(C#N)(c2ccccc2)c2ccc(OC(*)=O)cc2)cc1 (repeat unit) condition met

Does the reported glass transition temperature of the following compound sit strictly below 200 °C? *C/C=C(\C)CS(*)(=O)=O (repeat unit) condition met

Does the reported glass transition temperature of the following compound sit strictly below 200 °C? *c1ccc(Sc2ccc(-n3c(=O)c4cc5c(=O)n(*)c(=O)c5cc4c3=O)cc2)cc1 (repeat unit) condition not met

Does the reported glass transition temperature of the following compound sit strictly below 200 °C? *C(=O)Nc1cccc(NC(=O)/C=C/c2cccc(N3C(=O)c4ccc(*)cc4C3=O)c2)c1 (repeat unit) condition not met

Does the reported glass transition temperature of the following compound sit strictly below 200 °C? *c1ccc(Oc2ccc(Oc3ccc(Oc4ccc(-c5cnc6ccc(-c7ccc8nc(*)cnc8c7)cc6n5)cc4)cc3)cc2)cc1 (repeat unit) condition not met

###

Answer each item with its documented glass transition temperature.
The reply must contain the numeric value and, after it, the unit.

Use the examples below as a reference point.
[
  {
    "compound": "*C(=O)OCCCSCCCCCCSCCCOC(=O)c1ccc(N2C(=O)c3ccc(*)cc3C2=O)cc1 (repeat unit)",
    "glass transition temperature": "31.00 °C"
  },
  {
    "compound": "*Nc1cc(NC(=O)Nc2ccc(CCc3ccccc3NC(*)=O)cc2)ccc1C (repeat unit)",
    "glass transition temperature": "227.00 °C"
  },
  {
    "compound": "*CC(*)OC(=O)C(F)(F)C(F)(F)C(F)(F)C(F)(F)F (repeat unit)",
    "glass transition temperature": "20.00 °C"
  }
]

Below is a list of compounds. For each, state its recorded glass transition temperature.
1. *CC(O)COc1c(Cl)cc(C(C)(C)c2cc(Cl)c(OCC(O)COc3ccc(C(C)(C)c4ccc(O*)cc4)cc3)c(Cl)c2)cc1Cl (repeat unit)
2. *CCC(C)C(C)CCNC(=O)c1cccc(C(=O)N*)c1 (repeat unit)
3. *CCCOCCCCOCCCN1C(=O)c2ccc(C(=O)Oc3ccc4cc(OC(=O)c5ccc6c(c5)C(=O)N(*)C6=O)ccc4c3)cc2C1=O (repeat unit)
4. *c1nnc(-c2ccc(Oc3ccc(/C=C/c4ccc(Oc5ccc(*)c6ccccc56)cc4)cc3)c3ccccc23)o1 (repeat unit)
5. *c1ccc(Oc2ccc(Oc3ccc(-c4cnc5ccc(-c6ccc7ncc(*)nc7c6)cc5n4)cc3)cc2)cc1 (repeat unit)

["100.00 °C", "125.00 °C", "68.00 °C", "238.00 °C", "235.00 °C"]

###

Answer each item with its documented glass transition temperature.
Answers are plain numbers, in °C.

Use the examples below as a reference point.
[
  {
    "molecule": "*CCCCCC(*)CC (repeat unit)",
    "experimental-readout": "glass transition temperature",
    "endpoint-value": -73.00
  },
  {
    "molecule": "*C(=O)Oc1ccc(C(C)(C)c2ccc(OC(=O)c3ccc4c(c3)C(=O)N(c3ccc(Oc5ccc(N6C(=O)c7ccc(*)cc7C6=O)cc5)cc3)C4=O)cc2)cc1 (repeat unit)",
    "experimental-readout": "glass transition temperature",
    "endpoint-value": 200.00
  },
  {
    "molecule": "*Nc1cc(NC(=O)c2ccc(-c3ccc(C(*)=O)cc3)cc2)cc(C(=O)OCCOc2ccc(/C=C/C(=O)c3ccccc3)cc2)c1 (repeat unit)",
    "experimental-readout": "glass transition temperature",
    "endpoint-value": 254.00
  }
]

We now examine a further molecule.
Tell us which glass transition temperature value is on record for *CC(*)(C)C(=O)OCCCCOc1ccc(OC(=O)c2ccc(OCCCCCCCC)cc2)cc1 (repeat unit) 10.00

Attribution: the PolyMetriX glass transition set
